# System: K. pneumoniae ATCC 13883
# testName: MIC, micro-dilution broth method
# Assay type: cell-based, Klebsiella pneumoniae
# conditionInfo: Klebsiella pneumoniae, ATCC13883, Gram-negative bacteria
measuredMetric: MIC

response.value for `c1cnc2[nH]c(-c3ccncc3)nc2c1` (field: MIC) = > 1000 µg/mL

Recorded result, O=C(O)c1cn(C2CC2)c2cc(N3CCNCC3)c(F)cc2c1=O [Cip, ciprofloxacin, reference compound] , MIC: 0.12 µg/mL

Form: compound = `Brc1cnc2[nH]c(-c3cccnc3)nc2c1` ; MIC = > 1000 µg/mL

# MIC (compound: `c1cncc(-c2nc3cccnc3[nH]2)c1` ) is > 1000 µg/mL

// field: MIC; key: `c1cc(-c2nc3ccncc3[nH]2)ccn1` ; value = > 1000 µg/mL

###

Consider the following compounds; for each one, report its MIC.

Measured MIC for this entry c1cnc2[nH]c(-c3ccncc3)nc2c1 [L2] on E. coli ATCC 25922: 1000 µg/mL

// compound O=C(O)c1cn(C2CC2)c2cc(N3CCNCC3)c(F)cc2c1=O [Cip, ciprofloxacin, reference compound] , assay E. coli ATCC 25922, MIC value: 0.015 µg/mL

Observed MIC, E. coli ATCC 25922, c1cc(-c2nc3ccncc3[nH]2)ccn1 [L1] : > 1000 µg/mL

Fill in: E. coli ATCC 25922 MIC for Brc1cnc2[nH]c(-c3cccnc3)nc2c1 [L4] = > 1000 µg/mL

Query c1cncc(-c2nc3cccnc3[nH]2)c1 [L3] on E. coli ATCC 25922; MIC returned: > 1000 µg/mL

###

# Tested on: E. faecalis ATCC 29212
# testName: MIC, micro-dilution broth method
# Format: cell-based, Enterococcus faecalis
# conditionInfo: Gram-positive bacteria; micro-dilution broth
Give measured MIC, E. faecalis ATCC 29212 for each item. Keep answers brief.

The measured MIC, E. faecalis ATCC 29212 associated with `O.O.[Cl][Cd][Cl].c1cncc(-c2nc3cccnc3[nH]2)c1` reads >1000 µg/mL

For `O.[Cl][Cd][Cl].c1cc(-c2nc3ccncc3[nH]2)ccn1` the compound record lists MIC, E. faecalis ATCC 29212 as 125 µg/mL

Lab note: `Brc1cnc2[nH]c(-c3cccnc3)nc2c1.O.O.[Cl][Cd][Cl]` gave MIC, E. faecalis ATCC 29212 of 250 µg/mL

Entry `O.[Cl][Cd][Cl].c1cnc2[nH]c(-c3ccncc3)nc2c1` — recorded MIC, E. faecalis ATCC 29212 = 125 µg/mL

###

# Test system: A549 cells
# testName: MTT cytotoxicity assay, lung adenocarcinoma A549
# Type: cell-based, human
# conditionInfo: Homo sapiens; lung carcinoma A549, MTT assay after 24 h of incubation; read-out: IC50 ± SD, A549
pIC50: −log10 of the molar value.
measuredMetric: pIC50

// sample COc1cc([C@@H]2c3cc4c(cc3[C@@H](O[C@@H]3O[C@@H]5CO[C@@H](C)O[C@H]5[C@H](O)[C@H]3O)[C@H]3COC(=O)[C@H]23)OCO4)cc(OC)c1O [Etoposide, reference compound] , its pIC50 was < 3.77

Lab book: pIC50 of `c1cnc2[nH]c(-c3ccncc3)nc2c1` noted as 3.66

Lab book: pIC50 of `c1cncc(-c2nc3cccnc3[nH]2)c1` noted as < 3.29

Briefly, pIC50 measured for `Brc1cnc2[nH]c(-c3cccnc3)nc2c1` : < 3.44

Per the records, this compound ( `c1cc(-c2nc3ccncc3[nH]2)ccn1` ) has pIC50 equal to < 3.29

###

# System: B. subtilis ATCC 6633
# testName: MIC, micro-dilution broth method
# Format: cell-based, Bacillus subtilis
# conditionInfo: Gram-positive bacteria; micro-dilution broth
Provide the recorded MIC, B. subtilis ATCC 6633 for the entries that follow.
Number only, in µg/mL; omit the unit.

Consider `O.[Cl][Cd][Cl].c1cnc2[nH]c(-c3ccncc3)nc2c1` . Its measured MIC, B. subtilis ATCC 6633 is 0.98

The compound `O.[Cl][Cd][Cl].c1cc(-c2nc3ccncc3[nH]2)ccn1` showed MIC, B. subtilis ATCC 6633 equal to 7.8

MIC, B. subtilis ATCC 6633 for `O.O.[Cl][Cd][Cl].c1cncc(-c2nc3cccnc3[nH]2)c1` is 7.8

Recorded MIC, B. subtilis ATCC 6633 (compound `Brc1cnc2[nH]c(-c3cccnc3)nc2c1.O.O.[Cl][Cd][Cl]` ): 7.8

###

# Test system: SK-N-AS cells
# testName: MTT cytotoxicity assay, neuroblastoma SK-N-AS
# Assay type: cell-based, human
# conditionInfo: MTT assay after 24 h of incubation, read-out: IC50 ± SD, SK-N-AS
measuredMetric: IC50 (µM)
Give a bare numeral; the unit µM is implied.

IC50 reading for Brc1cnc2[nH]c(-c3cccnc3)nc2c1.O.O.[Cl][Cd][Cl] [C4, Cd(L4)Cl2∙2H2O] : 25.3

get_value(item= O.O.[Cl][Cd][Cl].c1cncc(-c2nc3cccnc3[nH]2)c1 [C3, Cd(L3)Cl2∙2H2O] , readout=IC50) returns 34.5

For reference, reported IC50 for COc1cc([C@@H]2c3cc4c(cc3[C@@H](O[C@@H]3O[C@@H]5CO[C@@H](C)O[C@H]5[C@H](O)[C@H]3O)[C@H]3COC(=O)[C@H]23)OCO4)cc(OC)c1O [Etoposide, reference compound] stands at 115

Sure, the documented IC50 for O.[Cl][Cd][Cl].c1cnc2[nH]c(-c3ccncc3)nc2c1 [C2, Cd(L2)Cl2∙H2O] is 22.5
